The origin of these recorded values is PubChem BioAssay (NCI).

system: KM20L2 colon; assay: NCI tumour cell line growth inhibition, 48 h
Quick list: TGI per entry.

# compound, unit.label, value.modifier, TGI
measured = [
    ("COC(=O)[C@@]12C=CC(=O)[C@H]3C[C@@H](C(C(C)C)C1)[C@]32OC (some centres not stated)", "µM", ">", 100),
    ("c1ccc2c(CNCCCCCCCCCCCCNCc3cccc4ccccc34)cccc2c1", "µM", "=", 3.37),
    ("Cn1sc2ccccc2c1=S", "µM", "=", 28.8),
    ("CCCCCC/C=C1\\CCC(CN(C)C)C1=O (configuration not stated)", "µM", "=", 23.3),
    ("C#Cc1cc(CN(CC(=O)OC(C)(C)C)CC(=O)OC(C)(C)C)nc(CN(CC(=O)OC(C)(C)C)CC(=O)OC(C)(C)C)c1", "µM", "=", 69.7),
    ("C=C[C@H]1C=Cc2c(OC)cccc2[C@@H]1COP1(=S)NC(C)C(c2ccccc2)O1 (some centres not stated)", "µM", ">", 100),
    ("C[CH2][Sn]([CH2]C)([O]C(=O)c1ccc(F)cc1)[O][Sn]([CH2]C)([CH2]C)[O]C(=O)c1ccc(F)cc1", "µM", ">", 100),
]

* * *

Quick list: TGI per entry.
system: SK-MEL-28 melanoma; test: NCI tumour cell line growth inhibition, 48 h

# compound, tgt, TGI
records = [
    ("CN1N=C2c3ccccc3CC[C@H]2C1c1cccc(O)c1 (stereo partly drawn)", "SK-MEL-28 melanoma", "> 100 µM"),
    ("Nc1ccccc1C#Cc1ccccc1C#Cc1cnccn1", "SK-MEL-28 melanoma", "32 µM"),
    ("COc1ccc(C2CC(=O)c3c(O)c(OC)c(OC)c(OC)c3O2)cc1O (stereo not drawn)", "SK-MEL-28 melanoma", "> 100 µM"),
    ("CCc1ccccc1NC(=O)C(=O)CC(=O)c1sc(Nc2ccccc2Cl)nc1C", "SK-MEL-28 melanoma", "> 100 µM"),
    ("COc1cc2c(cc1OCCCN1CCN(c3ncnc4ccccc34)CC1)N=CC1CCCN1C2=O (stereo not drawn)", "SK-MEL-28 melanoma", "0.103 µM"),
    ("O=C(O)c1ccc(NNC(=O)c2cccc3c(=O)c4ccccc4[nH]c23)cc1", "SK-MEL-28 melanoma", "> 100 µM"),
    ("CSC1(CC(=O)N2CCCCC2)C(=O)Nc2ccccc21 (stereo not drawn)", "SK-MEL-28 melanoma", "> 100 µM"),
    ("COC(=O)c1ccccc1C1CN=NC12Cc1cc(C)cc(C)c1C2=O (stereo not drawn)", "SK-MEL-28 melanoma", "> 100 µM"),
]

* * *

tested on: RXF 393 renal; experiment: NCI tumour cell line growth inhibition, 48 h
Quick list: TGI per entry.

# compound, TGI
measured = [
    ("O=C(COc1ccc(Cl)cc1Cl)N/N=C/C=C/c1ccc([N+](=O)[O-])o1", "59.8 µM"),
    ("O=C1COCCN1C(=O)c1ccccc1Cl", "> 100 µM"),
    ("COC(=O)[C@@]12C=CC(=O)[C@H]3C[C@@H](C(C(C)C)C1)[C@]32OC (stereo not given in full)", "> 100 µM"),
    ("C=CCC1C(=O)Nc2cccc3ncn(c23)C1=O (stereo not given)", "> 100 µM"),
    ("CC(C)NC(=O)OCc1c(COC(=O)NC(C)C)c(-c2ccc[n+](COC(=O)C(C)(C)C)c2)n2c1CCC2", "> 92.8 µM"),
    ("COc1ccc(C2C3=C(COC3=O)Oc3cc4c(cc32)OCO4)cc1 (stereo not given)", "> 100 µM"),
    ("COc1ccc2nc3ccccc3c(NCc3ccc(C)cc3)c2c1", "2.83 µM"),
    ("CCOC(=O)Nn1c(C)cc(C(=O)OC)c1C", "> 100 µM"),
    ("Cn1c(=O)c2c(nc(NCCNc3nc4c(c(=O)n(C)c(=O)n4C)n3C)n2C)n(C)c1=O", "> 100 µM"),
    ("COc1cc2c(cc1OC)C(=O)/C(=C/c1ccc([N+](=O)[O-])cc1)CC2", "> 10 µM"),
    ("O=C1NC2C(CCO)CC=C[C@H]2c2cc3c(cc21)OCO3 (stereo not given in full)", "> 100 µM"),
    ("O=C(O)[C@@H](NS(=O)(=O)c1ccc([N+](=O)[O-])cc1)c1ccccc1", "> 100 µM"),
    ("O=C(O)C1=NN(c2ccc(S(=O)(=O)O)cc2)C2(C1)SCC(=O)N2c1nc2ccccc2s1 (stereo not given)", "> 100 µM"),
    ("Cc1ccc(/C=N/NS(=O)(=O)c2ccc(/C=C3\\NC(=O)NC3=O)cc2)cc1", "> 100 µM"),
    ("Nc1ccccc1C#Cc1ccccc1C#Cc1cnccn1", "> 100 µM"),
    ("Cc1ccc2c(c1)C=CC(C#N)N2C(=O)Oc1ccccc1 (stereo not given)", "> 100 µM"),
    ("CC1c2cc(c3c(c2O)CN([C@@H](C)C2CCCCC2)CO3)C(C)c2cc(c3c(c2O)CN([C@@H](C)C2CCCCC2)CO3)C(C)c2cc(c3c(c2O)CN([C@@H](C)C2CCCCC2)CO3)C(C)c2cc1c1c(c2O)CN([C@@H](C)C2CCCCC2)CO1 (stereo not given in full)", "> 100 µM"),
    ("CCn1c2ccccc2c2cc(NC(=O)c3c(NCCNCCO)nc(=O)[nH]c3C)ccc21", "> 100 µM"),
    ("COC(C)(C)[C@H](O)C(O)CC(C)[C@@H]1CCC23CC12CCC1[C@@]2(C)CCC(OC(C)=O)C(C)(C)C2CC(OC2OC(COC(C)=O)C(O)C(O)C2O)[C@]13C (stereo not given in full)", "11.8 µM"),
    ("CCC1=[N+]([O-])C(C)(C)NC1(C)C", "> 10 µM"),
]

* * *

Quick list: TGI per entry.
test system: SK-OV-3 ovarian; assay: NCI tumour cell line growth inhibition, 48 h
measurement.kind: TGI

# compound, tgt, observed
rows = [
    ("COc1cc(C)c(NC(=O)CN(C)C)cc1Nc1nc(Nc2cccc(F)c2C(N)=O)c2cc[nH]c2n1", "SK-OV-3 ovarian", "6.29 µM"),
    ("Nc1nc(-c2cccs2)cs1", "SK-OV-3 ovarian", "> 100 µM"),
    ("COC(=O)C(=O)C(C(=O)OC)C(=O)C(=O)Nc1cc(Cl)c(Cl)cc1Cl (centres undefined)", "SK-OV-3 ovarian", "> 100 µM"),
    ("Nc1nc(-c2ccccc2)cc(-c2ccc(Cl)cc2)c1-c1nc2ccccc2o1", "SK-OV-3 ovarian", "30.7 µM"),
    ("CN(C)Cc1cc(/C=C/C(=O)c2ccc(Cl)c(Cl)c2)cc(CN(C)C)c1O", "SK-OV-3 ovarian", "36.9 µM"),
    ("CC1=Nc2ccccc2C12C(c1ccccc1)C(c1ccccc1)C(=O)N1c3ccccc3CC12 (centres undefined)", "SK-OV-3 ovarian", "> 100 µM"),
    ("FC(F)(F)c1nc(-c2ccccc2)oc1Sc1oc(-c2ccccc2)nc1C(F)(F)F", "SK-OV-3 ovarian", "> 100 µM"),
    ("COC1=CC(=O)C2C(C1=O)C(c1ccc(OC)c(OC)c1)[C@H]2C (some centres undefined)", "SK-OV-3 ovarian", "> 100 µM"),
    ("Nc1ncnc2c1ncn2C1OC(COC2C(CO)OC(OC(C(=O)O)C(O)C(OP(=O)(O)O)C(O)C(=O)O)C(O)C2O)C(O)C1O (centres undefined)", "SK-OV-3 ovarian", "> 100 µM"),
    ("COc1ccccc1NC(=O)C(CC(C(=O)Nc1ccccc1OC)/C(C)=N/NC(=O)c1ccccc1O)/C(C)=N/NC(=O)c1ccccc1O (centres undefined)", "SK-OV-3 ovarian", "> 100 µM"),
    ("CN1CCc2cc(N)cc3c2C1Cc1ccc2c(c1-3)OCO2 (centres undefined)", "SK-OV-3 ovarian", "> 100 µM"),
    ("C=C(C)[C@@H]1CC[C@]2(C(N)=O)CC[C@]3(C)[C@H](CC[C@@H]4[C@@]5(C)C/C(=C/c6cccnc6)[C@H](O)C(C)(C)[C@@H]5CC[C@]43C)[C@@H]12", "SK-OV-3 ovarian", "> 100 µM"),
    ("COC1CC(OC)C(O)C(CO)O1 (centres undefined)", "SK-OV-3 ovarian", "> 100 µM"),
    ("Cc1cc(O)c2c(c1)CC(O)C1=C2C(=O)c2c(O)ccc(OC3CC(O)C(OC4CC(OC5CCC(O)C(C)O5)C(O)C(C)O4)C(C)O3)c2C1=O (centres undefined)", "SK-OV-3 ovarian", "6.71 µM"),
    ("O=c1[nH]c2cc([N+](=O)[O-])ccc2nc1/C=C(\\O)c1ccc(Cl)cc1", "SK-OV-3 ovarian", "43.4 µM"),
    ("COc1ccc2nc3ccccc3c(NCc3ccc(C)cc3)c2c1", "SK-OV-3 ovarian", "8.41 µM"),
    ("O=c1ccnc(SCc2ccc(Cl)cc2)[nH]1", "SK-OV-3 ovarian", "> 100 µM"),
    ("CCN(CC)CC[n+]1cc2cc(OC)c(OC)cc2c2ccc3cc4c(cc3c21)OCO4", "SK-OV-3 ovarian", "2.08 µM"),
    ("O=C(OCc1ccccc1)N1CCCc2c(n(S(=O)(=O)c3ccccc3)c3ccccc23)C1", "SK-OV-3 ovarian", "> 100 µM"),
    ("CCN1CCN(c2ccc(Nc3ncc4ccc5ncn(C(C)C)c5c4n3)nc2)CC1", "SK-OV-3 ovarian", "0.847 µM"),
    ("CCOC(=O)Nn1c(C)cc(C(=O)OC)c1C", "SK-OV-3 ovarian", "> 100 µM"),
    ("Fc1cccc(-c2[nH]nc3nc(Nc4cccnc4)sc23)c1", "SK-OV-3 ovarian", "> 100 µM"),
    ("CC(CN)[C@@H]1CC[C@]2(CO)CC[C@]3(C)[C@H](CC[C@@H]4[C@@]5(C)CCC(N)C(C)(C)[C@@H]5CC[C@]43C)[C@@H]12 (some centres undefined)", "SK-OV-3 ovarian", "3.29 µM"),
    ("O=S(O)c1cc(Cl)cc(Cl)c1OCc1ccccc1", "SK-OV-3 ovarian", "> 100 µM"),
    ("COC(=O)[C@@]12C=CC(=O)[C@H]3C[C@@H](C(C(C)C)C1)[C@]32OC (some centres undefined)", "SK-OV-3 ovarian", "> 100 µM"),
    ("C[C@@H]1OCC2(CCN(c3cnc(Sc4ccnc(N)c4Cl)c(N)n3)CC2)[C@@H]1N", "SK-OV-3 ovarian", "> 100 µM"),
    ("COc1ccc(C(c2cc3c(cc2O)OCO3)N2CCOCC2)cc1OC (centres undefined)", "SK-OV-3 ovarian", "28.7 µM"),
    ("COC(=O)C1=C(C)N(NC(N)=O)C(C)(O)C12CCOC2=O (centres undefined)", "SK-OV-3 ovarian", "> 100 µM"),
    ("CCOC(=O)c1ccc(Nc2nc3cc(C(F)(F)F)ccc3nc2C(=O)OCC)cc1", "SK-OV-3 ovarian", "> 100 µM"),
    ("Cc1cn(C2CC(NC(=NCC3OC(n4cnc5c(N)ncnc54)CC3O)NC#N)C(CO)O2)c(=O)[nH]c1=O (centres undefined)", "SK-OV-3 ovarian", "> 100 µM"),
    ("CC(=O)[O][Bi]([c]1ccccc1)[c]1ccccc1", "SK-OV-3 ovarian", "30.5 µM"),
    ("O=C(CC(=O)N1N=C(N(c2ccccc2)c2ccccc2)CC1c1ccccc1)Nc1ccccc1 (centres undefined)", "SK-OV-3 ovarian", "> 100 µM"),
    ("CCn1c2ccccc2c2cc(NC(=O)c3c(NCCNCCO)nc(=O)[nH]c3C)ccc21", "SK-OV-3 ovarian", "> 100 µM"),
    ("Cn1c(=O)n2n(c1=O)[C@@H](c1ccccc1)[C@H]2c1ccccc1", "SK-OV-3 ovarian", "> 100 µM"),
    ("Clc1ccc2c(NCCNc3nc(N4CCCC4)nc4ccccc34)ccnc2c1", "SK-OV-3 ovarian", "3.16 µM"),
    ("N#CCc1nc(-c2cc3c(ccc4ccccc43)oc2=O)cs1", "SK-OV-3 ovarian", "77 µM"),
    ("C#CCCOC(=O)c1ccccc1OC(C)=O", "SK-OV-3 ovarian", "> 100 µM"),
    ("CC(C)c1ccc2nc3ccc(C(=O)NCCN4CCN(c5ccccc5)CC4)cn3c(=O)c2c1", "SK-OV-3 ovarian", "> 100 µM"),
    ("N#CC1(C#N)C(c2ccccc2)C=CC(c2ccc([N+](=O)[O-])cc2)C1(C#N)C#N (centres undefined)", "SK-OV-3 ovarian", "34.5 µM"),
]
